Where these numbers come from: ChEMBL document CHEMBL1909586

target: Cholinesterase (Homo sapiens); test: Inhibition of human serum recombinant BChE after 20 mins using butyrylthiocholine iodide as a substrate by Ellman's assay
Sequence (P06276 whole entry): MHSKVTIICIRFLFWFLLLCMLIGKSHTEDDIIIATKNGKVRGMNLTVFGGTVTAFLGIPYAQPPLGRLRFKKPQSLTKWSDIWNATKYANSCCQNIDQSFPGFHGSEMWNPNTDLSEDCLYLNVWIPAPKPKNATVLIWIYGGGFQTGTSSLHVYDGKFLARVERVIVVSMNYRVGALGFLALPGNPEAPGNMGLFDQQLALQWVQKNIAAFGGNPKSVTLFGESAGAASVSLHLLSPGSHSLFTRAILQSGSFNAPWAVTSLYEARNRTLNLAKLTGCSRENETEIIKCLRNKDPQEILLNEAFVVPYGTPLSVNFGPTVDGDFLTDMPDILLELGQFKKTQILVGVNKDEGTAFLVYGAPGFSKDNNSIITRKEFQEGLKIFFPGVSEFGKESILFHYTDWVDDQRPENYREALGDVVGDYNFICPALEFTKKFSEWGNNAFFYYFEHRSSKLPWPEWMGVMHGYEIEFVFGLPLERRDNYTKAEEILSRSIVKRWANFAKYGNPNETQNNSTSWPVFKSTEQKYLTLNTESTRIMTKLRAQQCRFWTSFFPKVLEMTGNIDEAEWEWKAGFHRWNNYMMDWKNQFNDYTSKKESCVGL
Hi there, I'd appreciate the recorded IC50 for every entry that follows.
One number for each entry, in nM.

// worked examples, IC50 included
O=C(CCCC[C@@H]1CCSS1)NCCCNc1c2c(nc3cc(Cl)ccc13)CCCC2 : 12.6
COc1cc2nc(Cl)nc(NCCCNC(=O)CCCCC3CCSS3)c2cc1OC (racemic) : 205000

Okay, next one:
Q. I would be grateful if you could share the reported IC50 for `O=C(CCCC[C@H]1CCSS1)NCCCNc1c2c(nc3cc(Cl)ccc13)CCCC2` .
A. 12.1
